Target: CYP3A4 (Homo sapiens)
Construct: purchased Promega; host or cells: baculovirus-infected insect cells
Sequence (P08684 whole entry): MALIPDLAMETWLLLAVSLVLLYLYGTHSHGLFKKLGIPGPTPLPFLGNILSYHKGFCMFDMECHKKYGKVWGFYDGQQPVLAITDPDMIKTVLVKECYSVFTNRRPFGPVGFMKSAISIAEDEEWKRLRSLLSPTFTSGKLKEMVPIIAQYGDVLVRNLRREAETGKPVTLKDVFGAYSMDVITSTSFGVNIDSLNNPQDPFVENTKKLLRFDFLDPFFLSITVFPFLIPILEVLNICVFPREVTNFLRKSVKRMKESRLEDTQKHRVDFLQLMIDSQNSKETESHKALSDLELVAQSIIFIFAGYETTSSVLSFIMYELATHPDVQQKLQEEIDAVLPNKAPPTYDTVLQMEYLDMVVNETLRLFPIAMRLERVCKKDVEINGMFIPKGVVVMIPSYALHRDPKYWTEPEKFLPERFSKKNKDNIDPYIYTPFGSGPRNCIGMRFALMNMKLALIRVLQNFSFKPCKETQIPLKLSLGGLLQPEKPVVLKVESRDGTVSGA
Assay: Cytochrome P450 3A4 assay (P450-Glo)
Assay type: in vitro ADME
Details: human; 10 µM
Measurement kind: inhibition at 10 µM

Query: Form field: reported inhibition at 10 µM of O=C1CC(c2cccc(O)c2)Oc2ccc(O)cc21 (stereo not drawn)
Reply: < 15%

Query: Form field: reported inhibition at 10 µM of O=C1CC(c2ccc(O)cc2)Oc2ccc(O)cc21 (stereo not drawn)
Reply: < 15%

Query: Form field: reported inhibition at 10 µM of O=C1CC(c2ccc(O)c(O)c2)Oc2ccc(O)cc21 (stereo not drawn)
Reply: < 15%

Reference for the values: paper PMC6155272
